# key: entry, value: RBP4 (% of initial/Control) 4 hr later
- Assayed Target: RBP4 (Mus musculus, UniProt Q00724)
- Construct: from tissue; host or cells: plasma of male C57BL/6J mice (Charles River Laboratories Japan Inc.)
- Protocol: Blood RBP4 lowering action in C57BL/6J mouse, single oral administration
- Assay type: in vivo
- Condition Info: plasma, 4 hr after 50 mg/kg oral, mean±SD n=5

Sample answers from the record:
O=C(O)CSC1CCN(c2cc(C(F)(F)F)cc(C(F)(F)F)c2)C1 (stereo not shown) ... 42.5 ± 3.3 % of initial/Control
O=C(O)CO[C@@H]1CCN(c2cc(C(F)(F)F)cc(C(F)(F)F)c2)C1 ... 42.2 ± 0.6 % of initial/Control

Exercise: Fill in: RBP4 (% of initial/Control) 4 hr later of O=C(O)CO[C@H]1CCN(c2cc(C(F)(F)F)cc(C(F)(F)F)c2)C1 is ___
Solution: 39.5 ± 0.6 % of initial/Control

Exercise: I would be grateful if you could share the reported RBP4 (% of initial/Control) 4 hr later for O=C(O)CCC1CCC(c2cc(C(F)(F)F)cc(C(F)(F)F)c2)O1 (racemic) .
Solution: 37.4 ± 2.4 % of initial/Control

----------
Some molecules, each annotated with its measured RBP4 (% of initial/Control) 4 hr later.
- Assayed Target: RBP4 (Mus musculus)
- Construct: from tissue; host or cells: plasma of male C57BL/6J mice (Charles River Laboratories Japan Inc.)
- Protocol: Blood RBP4 lowering action in C57BL/6J mouse, single oral administration
- Type: in vivo
- Condition Info: plasma, 4 hr after 50 mg/kg oral, mean±SD n=5

Exercise: RBP4 (% of initial/Control) 4 hr later lookup needed for O=C(O)CCN1CCN(c2cc(C(F)(F)F)cc(C(F)(F)F)c2)C1=O [Example 15] , thanks.
Solution: 51.0 ± 1.4 % of initial/Control

Exercise: Give the measured RBP4 (% of initial/Control) 4 hr later of O=C(O)COC1CCN(c2ccc(Cl)c(C(F)(F)F)c2)C1 (stereo not drawn) [Example 27] .
Solution: 56.2 ± 1.7 % of initial/Control

Exercise: Returns the measured RBP4 (% of initial/Control) 4 hr later for the input molecule. Input: O=C(O)CCC1CCN(c2ccc(Cl)c(C(F)(F)F)c2)C1 (stereo not drawn) [Example 13]
Solution: 54.5 ± 1.2 % of initial/Control

----------
- Assayed Target: RBP4 (Mus musculus)
- Construct: from tissue; host or cells: plasma of male C57BL/6J mice (Charles River Laboratories Japan Inc.)
- Protocol: Blood RBP4 lowering action in C57BL/6J mouse, single oral administration
- Assay type: in vivo
- Condition Info: plasma, 0 hr value before administration, 50 mg/kg oral, mean±SD n=5
# RBP4 (% of initial/Control) 0 hr later per record follows

Field: example entries. Status: answers known.
O=C(O)CCC1CCC(c2cc(C(F)(F)F)cc(C(F)(F)F)c2)O1 (racemic) [Example 34] ... 100.0 ± 5.6 % of initial/Control
O=C(O)CCN1CCN(c2cc(C(F)(F)F)cc(C(F)(F)F)c2)C1=O [Example 15] ... 100.0 ± 4.4 % of initial/Control
O=C(O)CO[C@H]1CCN(c2cc(C(F)(F)F)cc(C(F)(F)F)c2)C1 [Example 16] ... 100.0 ± 11.0 % of initial/Control
O=C(O)COC1CCN(c2ccc(Cl)c(C(F)(F)F)c2)C1 (stereo not shown) [Example 27] ... 100.0 ± 2.1 % of initial/Control
O=C(O)CCC1CCN(c2ccc(Cl)c(C(F)(F)F)c2)C1 (stereo not shown) [Example 13] ... 100.0 ± 10.9 % of initial/Control
O=C(O)CO[C@@H]1CCN(c2cc(C(F)(F)F)cc(C(F)(F)F)c2)C1 [Example 17] ... 100.0 ± 7.1 % of initial/Control

Next item in the queue.
Exercise: Dear colleague, I am looking for the recorded RBP4 (% of initial/Control) 0 hr later of the following compound: O=C(O)CSC1CCN(c2cc(C(F)(F)F)cc(C(F)(F)F)c2)C1 (stereo not shown) [Example 1]
Solution: 100 ± 20.2 % of initial/Control

----------
- Assayed Target: human RBP4 (Homo sapiens, UniProt P02753)
- Construct: the culture supernatant containing secreted/expressed hRBP4-His was recovered; His tag (His6, read from the HISENU oligo); made in house; host or cells: FreeStyle293 expression system (Invitrogen), secreted into the culture supernatant
- Protocol: Binding assay by Retinol-RBP4-TTR ELISA (human type ELISA)
- Condition Info: retinol 0.5 μM, read-out: human RBP4 binding inhibitory activity (IC50 nM)
Property: IC50 (nM)

Example entries begin here.
O=C(O)CO[C@H]1CCN(c2cc(C(F)(F)F)cc(C(F)(F)F)c2)C1 [Example 16] ... 28
O=C(O)CCC1CCC(c2cc(C(F)(F)F)cc(C(F)(F)F)c2)O1 (racemic) [Example 34] ... 26

(1) O=C(O)CSC1CCN(c2cc(C(F)(F)F)cc(C(F)(F)F)c2)C1 (single isomer, unassigned) [Example 11]
(2) O=C(O)CCC1CCN(c2ccc(Cl)c(C(F)(F)F)c2)C1 (stereo not shown) [Example 13]
Exercise: Determine, for 1 and 2 , which has the greater value of IC50. Please indicate the selected item by its label.
Solution: 2
(2: 26 nM, 1: 13 nM)

----------
- Assayed Target: human RBP4 (Homo sapiens, UniProt P02753)
- Construct: the culture supernatant containing secreted/expressed hRBP4-His was recovered; His tag (His6, read from the HISENU oligo); made in house; host or cells: FreeStyle293 expression system (Invitrogen), secreted into the culture supernatant
- Protocol: Binding assay by Retinol-RBP4-TTR ELISA (human type ELISA)
- Condition Info: retinol 0.5 μM, read-out: human RBP4 binding inhibitory activity (IC50 nM)
Property: IC50 (nM)

Solved entries:
O=C(O)CCSC1CCN(c2cc(C(F)(F)F)cc(C(F)(F)F)c2)C1 (stereo not drawn) ... 81
O=C(O)COC1CCN(c2ccc(Cl)c(C(F)(F)F)c2)C1 (stereo not drawn) ... 140
O=C(O)C[S+]([O-])C1CCN(c2cc(C(F)(F)F)cc(C(F)(F)F)c2)C1 (stereo not drawn) ... 38
O=C(O)CO[C@@H]1CCN(c2cc(C(F)(F)F)cc(C(F)(F)F)c2)C1 ... 20
O=C(O)CSC1CCN(c2cc(C(F)(F)F)cc(C(F)(F)F)c2)C1 (stereo not drawn) [Example 1] ... 45
O=C(O)CSC1CCN(c2cc(C(F)(F)F)cc(C(F)(F)F)c2)C1 (single isomer, unassigned) [Example 10] ... 27

(1) O=C(O)CCC1CCN(c2cccc(C(F)(F)F)c2Cl)C1 (stereo not drawn)
(2) O=C(O)CN1CC(c2cc(C(F)(F)F)cc(C(F)(F)F)c2)CC1=O (stereo not drawn)
Exercise: Between the two listed entries 1 and 2 , which has its IC50 at the higher number? Returns: label corresponding to the selected item.
Solution: 2
(2: 210 nM, 1: 39 nM)

----------
- Assayed Target: RBP4 (Mus musculus, UniProt Q00724)
- Construct: from tissue; host or cells: plasma of male C57BL/6J mice (Charles River Laboratories Japan Inc.)
- Protocol: Blood RBP4 lowering action in C57BL/6J mouse, single oral administration
- Assay type: in vivo
- Condition Info: plasma, 24 hr after 50 mg/kg oral, mean±SD n=5
Property: RBP4 (% of initial/Control) 24 hr later

// known answers, use as guide
O=C(O)CCC1CCC(c2cc(C(F)(F)F)cc(C(F)(F)F)c2)O1 (racemic) [Example 34] ... 107.4 ± 15.3 % of initial/Control
O=C(O)CO[C@@H]1CCN(c2cc(C(F)(F)F)cc(C(F)(F)F)c2)C1 [Example 17] ... 38.6 ± 0.8 % of initial/Control
O=C(O)CCN1CCN(c2cc(C(F)(F)F)cc(C(F)(F)F)c2)C1=O [Example 15] ... 58.2 ± 2.7 % of initial/Control
O=C(O)CO[C@H]1CCN(c2cc(C(F)(F)F)cc(C(F)(F)F)c2)C1 [Example 16] ... 37.5 ± 0.4 % of initial/Control
O=C(O)CCC1CCN(c2ccc(Cl)c(C(F)(F)F)c2)C1 (stereo not shown) [Example 13] ... 106.6 ± 3.9 % of initial/Control

Exercise: Suppose we examine the compound O=C(O)CSC1CCN(c2cc(C(F)(F)F)cc(C(F)(F)F)c2)C1 (stereo not shown) [Example 1] ; what RBP4 (% of initial/Control) 24 hr later value has been reported?
Solution: 73.8 ± 19.3 % of initial/Control

Exercise: Give its RBP4 (% of initial/Control) 24 hr later value. Item: O=C(O)COC1CCN(c2ccc(Cl)c(C(F)(F)F)c2)C1 (stereo not shown) [Example 27]
Solution: 59.6 ± 2.1 % of initial/Control
